These data points were gathered from PubChem BioAssay (NCI).

Items are presented alongside their recorded growth.
Tested on: OVCAR-5 ovarian
Test: NCI-60 one-dose screen, 48 h (100 = growth as untreated, 0 = no growth, -100 = all killed)
Conditions: 10 µM unless noted
About 83,000 compounds went through this panel and 20% of them were active in at least one assay; those are over-represented in the sample as a whole.
measured.metric: growth (%)

> print(dat)
                                   compound  measured.metric  unit.label  recorded.number
1  O=C1c2ccccc2C(=O)N1N1CC1c1ccccc1 (stereo not given)           growth           %              113
2  COC12CC3(C)C(C4=CC(=O)OC4)CCC3(O)C3CCC4=CC(=O)CCC4(CO1)C32 (stereo not given)           growth           %             99.5
3  C[C@]12CC[C@H]3[C@@H](C[C@@H]4SC(Nc5cccc(F)c5)=N[C@@]45CC(=O)CC[C@]35C)[C@@H]1CCC2=O           growth           %             65.5
4  C=CC[PH+](c1ccccc1)c1ccccc1.C=CC[PH+](c1ccccc1)c1ccccc1.[Pt+2].[S-]c1ncccn1.[S-]c1ncccn1           growth           %             14.3
5           C[N+]1(CC#CC[N+]2(C)CCCC2)CCCC1           growth           %              101
